# System: MRC5
# experimental-details: Cytotoxicity on MRC-5 cells at 3.13 uM
# Format: functional
# particulars: Homo sapiens
quantity-measured: cytotoxicity at 3.13 µM
Hi, when you answer, please include the unit after the number. Thanks!

Challenge: # input molecule: "COc1ccc2nc3cc(Cl)ccc3c(NCCCN(CCCNc3c4ccc(Cl)cc4nc4ccc(OC)cc34)C(=O)CCC(N)=O)c2c1" ; wanted: its cytotoxicity at 3.13 µM
Response given: 100%

Challenge: What do you get for COc1ccc2nc3cc(Cl)ccc3c(NCCCN(CCCNc3c4ccc(Cl)cc4nc4ccc(OC)cc34)C(=O)C(CC(=O)O)NC(=O)OC(C)(C)C)c2c1 (stereo not drawn) ?
Response given: 0%

Challenge: What do you get for COc1ccc2nc3cc(Cl)ccc3c(NCCCN(CCCNc3c4ccc(Cl)cc4nc4ccc(OC)cc34)C(=O)C(CN)NC(=O)OC(C)(C)C)c2c1 (stereo not drawn) ?
Response given: 0%

###

# Tested on: Trypanosoma cruzi
# experimental-details: Percentage of activity against Trypanosoma cruzi at 1.56 uM
# Format: functional
quantity-measured: Parasite load reduction (%)
State the answer as a number, implicitly in %.

Examples with answers:
# compound, meas-value
rows = [
    ("COc1ccc2nc3cc(Cl)ccc3c(NCCCN(CCCNc3c4ccc(Cl)cc4nc4ccc(OC)cc34)C(=O)C(NC(=O)OC(C)(C)C)C(C)C)c2c1 (stereo not given)", 70),
    ("COc1ccc2nc3cc(Cl)ccc3c(NCCCN(CCCNc3c4ccc(Cl)cc4nc4ccc(OC)cc34)C(=O)CCN3CCN(C)CC3)c2c1", 0),
    ("COc1ccc2nc3cc(Cl)ccc3c(NCCN(CCNc3c4ccc(Cl)cc4nc4ccc(OC)cc34)C(=O)C(C)NC(=O)OC(C)(C)C)c2c1 (stereo not given)", 0),
    ("COc1ccc2nc3cc(Cl)ccc3c(NCCCN(CCCNc3c4ccc(Cl)cc4nc4ccc(OC)cc34)C(=O)CCN3CCCC3)c2c1", 0),
    ("COc1ccc2nc3cc(Cl)ccc3c(NCCCN(CCCNc3c4ccc(Cl)cc4nc4ccc(OC)cc34)C(=O)CCN(C)C)c2c1", 40),
]

Challenge: # input compound: "COc1ccc2nc3cc(Cl)ccc3c(NCCCN(CCCNc3c4ccc(Cl)cc4nc4ccc(OC)cc34)C(=O)CCC(=O)O)c2c1" ; wanted: its Parasite load reduction
Response given: 0

Challenge: What do you get for COc1ccc2nc3cc(Cl)ccc3c(NCCCN(CCCNc3c4ccc(Cl)cc4nc4ccc(OC)cc34)C(=O)C(COCc3ccccc3)NC(=O)OC(C)(C)C)c2c1 (stereo not given) ?
Response given: 0

Challenge: What do you get for COc1ccc2nc3cc(Cl)ccc3c(NCCCN(CCCNc3c4ccc(Cl)cc4nc4ccc(OC)cc34)C(=O)C(CC(=O)OCC3c4ccccc4-c4ccccc43)NC(=O)OC(C)(C)C)c2c1 (stereo not given) ?
Response given: 0

Challenge: What do you get for COc1ccc2nc3cc(Cl)ccc3c(NCCCCN(CCCNc3c4ccc(Cl)cc4nc4ccc(OC)cc34)C(=O)C(C)NC(=O)OC(C)(C)C)c2c1 (stereo not given) ?
Response given: 0

Challenge: What do you get for COc1ccc2nc3cc(Cl)ccc3c(NCCCN(CCCNc3c4ccc(Cl)cc4nc4ccc(OC)cc34)C(=O)C(C)NC(=O)OC(C)(C)C)c2c1 (stereo not given) ?
Response given: 0

###

# Test system: MRC5
# experimental-details: Cytotoxicity on MRC-5 cells at 3.13 uM
# Format: functional
# particulars: Homo sapiens
Listed next: entries and their corresponding cytotoxicity at 3.13 µM.
State the answer as a number, implicitly in %.

# molecule, quantity-unit, meas-value
data = [
    ("COc1ccc2nc3cc(Cl)ccc3c(NCCCN(CCCNc3c4ccc(Cl)cc4nc4ccc(OC)cc34)C(=O)CNC(=O)C(C)NC(=O)OC(C)(C)C)c2c1 (stereo not given)", "%", 31),
    ("COc1ccc2nc3cc(Cl)ccc3c(NCCCN(CCCNc3c4ccc(Cl)cc4nc4ccc(OC)cc34)C(=O)CCC(=O)O)c2c1", "%", 0),
    ("COc1ccc2nc3cc(Cl)ccc3c(NCCCN(CCCNc3c4ccc(Cl)cc4nc4ccc(OC)cc34)C(=O)C(C)N)c2c1 (stereo not given)", "%", 20),
    ("COc1ccc2nc3cc(Cl)ccc3c(NCCCN(CCCNc3c4ccc(Cl)cc4nc4ccc(OC)cc34)C(=O)CCN3CCNCC3)c2c1", "%", 0),
]

// next entry
Challenge: # input molecule: COc1ccc2nc3cc(Cl)ccc3c(NCCCN(CCCNc3c4ccc(Cl)cc4nc4ccc(OC)cc34)C(=O)C(C)NC(=O)OC(C)(C)C)c2c1 (stereo not given) ; wanted: its cytotoxicity at 3.13 µM
Response given: 0
